Tested on: SNB-75
Assay: NCI tumour cell line growth inhibition, 48 h
Active and inactive are the calls of the source. No stated cut-off is given here; in the data, active = GI50 up to about 1.1 µM and inactive = higher.
Entries annotated with measured GI50

The examples below pair each entry with its known result.
BrC/C=C/C[P+](c1ccccc1)(c1ccccc1)c1ccccc1	19.8 µM (inactive)
CCCN(CCCCC(NC(C)=O)C(=O)NCc1ccccc1)C(=O)NC (centres undefined)	95.7 µM (inactive)
CCCC(=O)OC1=C(c2ccccc2)Sc2ccccc2-n2cccc21	> 10 µM (inactive)
COc1c(Cl)nc2ccccc2c1N=[N+]=[N-]	63 µM (inactive)
c1ccc(-c2ccc(/N=N/N3CCCC3)cc2)cc1	> 100 µM (inactive)
O=C1Nc2cc(Cl)ccc2C(=O)N2CCC[C@@H]12	> 100 µM (inactive)

Query string: Write down GI50 measured for item "O=C1/C(=C/c2ccco2)N=C2Sc3c([nH]cnc3=O)N12"
Result string: > 100 µM (inactive)

Query string: Let me know recorded GI50 for "CC(=O)/N=C1/N(/C=C2\C(=O)Oc3ccccc3C2=O)C(=O)/C(=C/c2ccccc2Cl)N1C" , thanks.
Result string: 22.2 µM (inactive)

Query string: Return reported GI50. Input molecule: "CN(C)/C=N\c1c(Br)cc(Br)c2nonc12"
Result string: 44.3 µM (inactive)

Query string: Tell us which GI50 value is on record for "Oc1c(Cl)c2nccnc2c2ccccc12"
Result string: > 100 µM (inactive)

Query string: Give the reported GI50 for this molecule. "O=C1Nc2cccc(C(F)(F)F)c2/C1=N/Nc1ccccc1[N+](=O)[O-]"
Result string: 25.6 µM (inactive)

Query string: Give GI50 for "Cc1cc(C)c(C#N)c(SC(=S)NC(=O)c2ccc(Cl)cc2)n1"
Result string: > 100 µM (inactive)

Query string: Return GI50 (reported value) for this molecule: NC1N=C(c2ccc(Cl)cc2)C2=C(N1)c1ccccc1CC2 (centres undefined)
Result string: 1.71 µM (inactive)

Query string: Write down GI50 measured for item "Cn1cc(C(=O)C[n+]2ccccc2)c2ccccc21"
Result string: 69.2 µM (inactive)

Query string: Using known records, supply GI50 for "O=C1NC(=O)c2c1n(Cc1ccccc1)c(=O)n2Cc1ccccc1"
Result string: > 100 µM (inactive)

Query string: Hello, please tell me recorded GI50 for this one: "O=[N+]([O-])c1ccc(C2=Nn3cnnc3SC2)o1"
Result string: 25.3 µM (inactive)

Query string: Please supply the value of reported GI50 for the item "CCOc1c(OC)cc(CNNc2nccs2)cc1OC"
Result string: 34.8 µM (inactive)
